For each record, write down the corresponding hERG current change (%, negative = inhibition) at 1uM.
biological target: human ether-à-go-go-related gene (hERG) potassium channel (human, UniProt Q12809); assay: primary screen, population patch clamp on CHO cells stably expressing hERG; higher = less effect of the substance
Sequence (Q12809 whole entry, looked up): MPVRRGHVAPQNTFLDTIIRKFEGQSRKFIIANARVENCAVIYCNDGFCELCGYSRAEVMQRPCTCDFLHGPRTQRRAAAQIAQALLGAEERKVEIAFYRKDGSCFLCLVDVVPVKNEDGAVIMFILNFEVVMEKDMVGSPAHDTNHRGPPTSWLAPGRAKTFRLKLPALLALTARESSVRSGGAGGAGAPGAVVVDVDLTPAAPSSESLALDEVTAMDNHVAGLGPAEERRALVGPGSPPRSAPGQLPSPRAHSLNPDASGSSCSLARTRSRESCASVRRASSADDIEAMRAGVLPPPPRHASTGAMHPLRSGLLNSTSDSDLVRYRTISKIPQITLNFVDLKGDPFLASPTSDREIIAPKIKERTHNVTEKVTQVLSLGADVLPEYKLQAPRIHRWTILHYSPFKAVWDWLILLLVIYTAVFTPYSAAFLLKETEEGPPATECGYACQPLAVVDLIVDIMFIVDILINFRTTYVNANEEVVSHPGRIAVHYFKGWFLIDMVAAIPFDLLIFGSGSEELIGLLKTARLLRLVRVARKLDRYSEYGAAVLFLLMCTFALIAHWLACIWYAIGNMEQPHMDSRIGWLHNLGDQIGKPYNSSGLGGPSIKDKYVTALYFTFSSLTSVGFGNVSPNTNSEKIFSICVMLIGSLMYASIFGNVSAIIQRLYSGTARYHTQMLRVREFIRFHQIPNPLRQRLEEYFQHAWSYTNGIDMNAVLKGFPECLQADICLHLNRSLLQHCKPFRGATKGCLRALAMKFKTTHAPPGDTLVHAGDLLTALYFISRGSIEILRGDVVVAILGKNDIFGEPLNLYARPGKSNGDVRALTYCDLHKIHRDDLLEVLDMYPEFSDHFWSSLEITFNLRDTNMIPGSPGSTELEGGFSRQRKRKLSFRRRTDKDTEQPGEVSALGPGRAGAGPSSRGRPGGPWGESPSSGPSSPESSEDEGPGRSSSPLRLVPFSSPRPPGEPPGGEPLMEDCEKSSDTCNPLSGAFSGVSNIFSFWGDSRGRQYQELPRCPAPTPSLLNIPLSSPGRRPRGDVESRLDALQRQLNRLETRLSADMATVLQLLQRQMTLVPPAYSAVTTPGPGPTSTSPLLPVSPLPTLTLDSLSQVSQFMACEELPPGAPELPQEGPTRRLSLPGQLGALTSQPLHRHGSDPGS
Screen size: about 310,000 compounds; about 2,200 (0.71%) showed an effect of 50% or more. Effects have a minus sign here. The full list was thinned out, with strong results kept by preference.
Please state the figure in %; there is no need to write the unit.

Incoming: Provide only the value of recorded hERG current change (%, negative = inhibition) at 1uM for `COc1ccc(-n2c(SCC(=O)NCc3cccs3)nc3[nH]ncc3c2=O)cc1`
Outgoing: -7.44

Incoming: Provide only the value of recorded hERG current change (%, negative = inhibition) at 1uM for `COc1ccc(CN2CCC(Oc3cc(C(=O)NC4CC4)ccc3OC)CC2)c(O)c1`
Outgoing: -87.5

Incoming: Provide only the value of recorded hERG current change (%, negative = inhibition) at 1uM for `CCNc1nc(N)nc(Oc2ccc(OCCOc3ccccc3)nn2)n1`
Outgoing: 8.36

Incoming: Provide only the value of recorded hERG current change (%, negative = inhibition) at 1uM for `COc1ccc(-c2ccc(S(=O)(=O)n3nc(OC(=O)c4cccs4)cc3N)cc2)cc1`
Outgoing: 8.64

Incoming: Provide only the value of recorded hERG current change (%, negative = inhibition) at 1uM for `CNC(=O)Cn1ncc2c3ccccc3n(C)c2c1=O`
Outgoing: 13.1

Incoming: Provide only the value of recorded hERG current change (%, negative = inhibition) at 1uM for `COc1ccc(CN(C)C(=O)c2cc(S(=O)(=O)N3CCCCCC3)ccc2OC)cc1OC`
Outgoing: 4.44

Incoming: Provide only the value of recorded hERG current change (%, negative = inhibition) at 1uM for `CCCC(=O)N1CCN(c2ccc(NC(=O)c3ccc(N4CCCC4)c([N+](=O)[O-])c3)cc2Cl)CC1`
Outgoing: -8.46

Incoming: Provide only the value of recorded hERG current change (%, negative = inhibition) at 1uM for `COCCN(C(=O)CSc1nnc(-c2ccco2)n1C)c1c(N)n(CC(C)C)c(=O)[nH]c1=O`
Outgoing: 8.54

Incoming: Provide only the value of recorded hERG current change (%, negative = inhibition) at 1uM for C=CCNC(=O)CSc1nnc(C(CC)N(C)C)n1C1CCCCC1 (stereo not shown)
Outgoing: 8.12

Incoming: Provide only the value of recorded hERG current change (%, negative = inhibition) at 1uM for `CCN(CC)CCOC(=O)c1ccc(N/C=C(/C#N)c2nc(-c3cccc(OC)c3)cs2)cc1`
Outgoing: 13.7

Incoming: Provide only the value of recorded hERG current change (%, negative = inhibition) at 1uM for `COc1ccc(OC)c(CN2CCC(N3CCC(C(=O)NC4CC4)CC3)CC2)c1`
Outgoing: 4.7

Incoming: Provide only the value of recorded hERG current change (%, negative = inhibition) at 1uM for `CCCCn1c(O)c(C(=O)/C=C/c2ccc3c(c2)OCO3)c(=O)[nH]c1=O`
Outgoing: 11.9

Incoming: Provide only the value of recorded hERG current change (%, negative = inhibition) at 1uM for `Cc1c(C(=O)Nc2cccc([N+](=O)[O-])c2)sc2ncn(CC(=O)N3CCOCC3)c(=O)c12`
Outgoing: 14.1

Incoming: Provide only the value of recorded hERG current change (%, negative = inhibition) at 1uM for `N/C(=N\OC(=O)CC1CCCCC1)c1ccncc1`
Outgoing: 12.3

Incoming: Provide only the value of recorded hERG current change (%, negative = inhibition) at 1uM for CCCCN(C(=O)c1cc(OC)c(OC)c(OC)c1)C1=CC2CCC(C1)N2C.Cl (stereo not shown)
Outgoing: 8.68

Incoming: Provide only the value of recorded hERG current change (%, negative = inhibition) at 1uM for COc1ccc(/C=C2\SC(=S)N(CC(=O)NC3CCS(=O)(=O)C3)C2=O)cc1 (stereo not shown)
Outgoing: 17.2

Incoming: Provide only the value of recorded hERG current change (%, negative = inhibition) at 1uM for `CCOc1ccc(OCCCC(=O)ON=C(N)c2ccccc2C)cc1`
Outgoing: 2.24

Incoming: Provide only the value of recorded hERG current change (%, negative = inhibition) at 1uM for `Cc1cc(NC(=O)c2ccc(F)cc2)n(-c2ccccc2)n1`
Outgoing: -75.3

Incoming: Provide only the value of recorded hERG current change (%, negative = inhibition) at 1uM for COc1cc(C(C)=O)ccc1OCC(O)CNCC1(N2CCCCC2)CCCCC1.O=C(O)C(=O)O (stereo not shown)
Outgoing: 2.35
